Origin of the recorded values: the RNAGym collection of RNA variant scans (doi:10.1073/pnas.2313332121)

B1: TPR t1 (parent)
chain: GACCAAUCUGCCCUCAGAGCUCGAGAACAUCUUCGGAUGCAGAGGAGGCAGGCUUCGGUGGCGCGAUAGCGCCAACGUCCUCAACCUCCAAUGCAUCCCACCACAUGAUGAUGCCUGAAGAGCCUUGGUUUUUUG

# Variants of: B1
# assay.remarks: polymerase ribozyme fitness, log enrichment relative to wild type (log ratio); higher = more active; in vitro selection for triplet polymerase activity
# maps each entry to its polymerase ribozyme fitness (log ratio)

residue.change | polymerase ribozyme fitness (log ratio)
U14C G36C U133A | -4.29
U78C G135A | -1.44
G61C A111G U116G C124A U131G | -3.87
U9C G19U U81C U130C | -3.09
A6G U30C C73U C124A | -1.64
C12A A27G C34G G61U A118C C123G | -8.42
G60A G61U G127C | -5.15
C28U C72G U78A | -2.79
U7C G42C C88U C115U U133A | -0.576
C13U G58C A84G | -0.641
A46G G51U | -2.98
G113A U130A | -2.33
C89A C97U | -2.16
U78C G110U | -1.27
U67A A74U C94G C101A G113C | -7.83
C13G G117U | -4
C56U A95G C101A | -1.46
A43C C101U | -2.75
A75G C88A C104A U112A | -1.1
C22G C82U | -3.57
G17A C40G G60A A83C A84C A121C | -3.61
G61U G69U G120A | 0.591
U59A G63U | -1.93
U81C C86U U116G | -3.1
A16G A27G U32C A50G | -4.47
C53A C123G | 2.31
A2G G39U | -1.18
A68G | -2.44
C8A G120A | 1.88
C34A G52U C53U A90U U106A | -4.54
G51C G52C | -2.79
U78A U112A | 1.06
C53G G117A U130C | -1.46
A46G U54G C62G U78C C123U | -4.11
A27U G77U U78G A111C | -6.32
C115G | -1.59
G36C A68G C79G C98U C115U C124U | -6.44
G10C A74G | -1.26
G10C C15U A41C C53G C89U | -3.28
G48U C53G G69U | -0.128
G17U G48C | -2.61
U33C G69U | -1.74
C89U C97G | -5.4
U78C U81G | -3.03
A18G U87G U109A | -2.3
A27G G93C C104U | -3.11
G10U C86A C102U | -2.34
C12A A18G C40U | -4.84
A26U G135A | -3.67
C53U G110C | -3.51
C11A G61A C104A G110A | -5.34
C22U C70U G117C | -6.77
C34U A41G C56U G63C C89A A95U C104G G110A | -5.19
C80U | -0.463
C72U U132A | -0.0764
U9A G19U G42A A46G U78C | -4.66
A5G A43G C56U C80U | -2.61
A2G C97U G113U C114G | -3.04
G10C G39A G61A | -1.27
U32A G44A C94A C99G G120U | -7.6
G52U C82A A83U G127C | -2.33
G36A C72G G117A | -3.71
G10U G61A C123A U126G | -1.39
C12U C89U | 0.399
U54G A84C | -0.587
G19U U87G G110C U112G | -6.7
G36A C72G G110U | -4.37
A16U G117U | -2.04
A26U G69U | -1.44
A6C G47A C62U C86U U133G | -0.219
U9A G10A C40A C70U U78C G110U C123U | -4.89
G63A C101A | -3.39
U14G G113C | -4.24
G17U C72U | -3.14
G52C G93A G113A A119G | -1.29
A6C C15U G63C | -2.01
C49G G57U C82G U96G | -2.49
G44U A75U U92C | -1.34
A37U G44A G113C U130A | -3.29
U21A G44A | -1.07
C76G | -0.207
G48C U67C G71A A95G U106A | -8.09
U14C G42C U92G | -4.23
A16C G25U A26G | -4.77
A16C C97U A100U | -3.88
C56G U106A | -0.921
U7C G42U G69C | -2.97
C53U C62A U78C | -1.46
G63A C102U | -3.27
G10U A27G U106C C123A | 0.556
A29C U54C | -1.78
